tested on: Alopecurus myosuroides (ALOMY); test: Herbicidal glasshouse test, pre-emergence, ALOMY; format: in vivo; settings: applied at 1000 g/h, evaluated after 13 days
Each entry below carries its reported PRE Application ALOMY, percentage damage (five point scale).

[
  {
    "TEST SMILES": "Cn1nnnc1NC(=O)c1nn(C)c(=O)n(-c2cccc(C(F)(F)F)c2)c1=O",
    "TEST RESULT": "5 (5=80-100%)"
  },
  {
    "TEST SMILES": "CC#CCn1nc(C(=O)Nc2nnnn2C)c(=O)n(-c2cccc(F)c2)c1=O",
    "TEST RESULT": "4 (4=60-79%)"
  },
  {
    "TEST SMILES": "Cn1nnnc1NC(=O)c1nn(C)c(=O)n(-c2ccc(F)cc2Cl)c1=O",
    "TEST RESULT": "5 (5=80-100%)"
  },
  {
    "TEST SMILES": "COCCOc1ccc(-n2c(=O)c(C(=O)Nc3nnnn3C)nn(C)c2=O)cc1",
    "TEST RESULT": "5 (5=80-100%)"
  },
  {
    "TEST SMILES": "COc1cc(-n2c(=O)c(C(=O)Nc3nnnn3C)nn(C)c2=O)ccc1F",
    "TEST RESULT": "5 (5=80-100%)"
  },
  {
    "TEST SMILES": "Cn1nnnc1NC(=O)c1nn(C)c(=O)n(Cc2ccccc2)c1=O",
    "TEST RESULT": "5 (5=80-100%)"
  },
  {
    "TEST SMILES": "Cc1ccc(Cl)cc1-n1c(=O)c(C(=O)Nc2nnnn2C)nn(C)c1=O",
    "TEST RESULT": "5 (5=80-100%)"
  },
  {
    "TEST SMILES": "Cn1nnnc1NC(=O)c1nn(C)c(=O)n(-c2ccc(OC(F)(F)F)cc2)c1=O",
    "TEST RESULT": "5 (5=80-100%)"
  }
]

Form: molecule = Cn1nnnc1NC(=O)c1nn(C)c(=O)n(-c2ccc(Cl)cc2)c1=O ; PRE Application ALOMY, percentage damage (five point scale) = 5 (5=80-100%)

Form: molecule = Cn1nnnc1NC(=O)c1nn(C)c(=O)n(CCCC(F)(F)F)c1=O ; PRE Application ALOMY, percentage damage (five point scale) = 5 (5=80-100%)

Form: molecule = Cn1nnnc1NC(=O)c1nn(C)c(=O)n(-c2ccc(Br)cc2)c1=O ; PRE Application ALOMY, percentage damage (five point scale) = 5 (5=80-100%)

Form: molecule = Cn1nnnc1NC(=O)c1nn(C)c(=O)n(-c2cc(F)cc(F)c2)c1=O ; PRE Application ALOMY, percentage damage (five point scale) = 5 (5=80-100%)

Form: molecule = Cn1nnnc1NC(=O)c1nn(C)c(=O)n(Cc2ccccc2Br)c1=O ; PRE Application ALOMY, percentage damage (five point scale) = 5 (5=80-100%)

Form: molecule = Cn1nnnc1NC(=O)c1nn(C)c(=O)n(-c2ccc(Cl)c(Cl)c2)c1=O ; PRE Application ALOMY, percentage damage (five point scale) = 5 (5=80-100%)

----------
Each entry below carries its reported PRE Application ALOMY, percentage damage (five point scale).
tested on: Alopecurus myosuroides (ALOMY); assay: Herbicidal glasshouse test, pre-emergence, ALOMY; assay type: in vivo; conditions: applied at 1000 g/h, evaluated after 13 days

Below, each entry is followed by its recorded PRE Application ALOMY, percentage damage (five point scale) result.
[
  {
    "TEST SMILES": "C=CCn1nc(C(=O)Nc2nnnn2C)c(=O)n(-c2ccc(F)cc2)c1=O",
    "TEST RESULT": "4 (4=60-79%)"
  },
  {
    "TEST SMILES": "Cn1nnnc1NC(=O)c1nn(C)c(=O)n(Cc2ccc(SC(F)(F)F)cc2)c1=O",
    "TEST RESULT": "5 (5=80-100%)"
  },
  {
    "TEST SMILES": "Cn1ncnc1NC(=O)c1nn(C)c(=O)n(-c2cccc(F)c2F)c1=O",
    "TEST RESULT": "3 (3=40-59%)"
  },
  {
    "TEST SMILES": "Cn1nnnc1NC(=O)c1nn(C)c(=O)n(Cc2ccccc2F)c1=O",
    "TEST RESULT": "5 (5=80-100%)"
  },
  {
    "TEST SMILES": "Cn1nnnc1NC(=O)c1nn(C)c(=O)n(Cc2ccc(F)cc2F)c1=O",
    "TEST RESULT": "5 (5=80-100%)"
  }
]

Summary: Cn1nnnc1NC(=O)c1nn(C)c(=O)n(CC2CCCCC2)c1=O , Alopecurus myosuroides (ALOMY), PRE Application ALOMY, percentage damage (five point scale) = 5 (5=80-100%)

Summary: Cn1nnnc1NC(=O)c1nn(C)c(=O)n(-c2ccc(F)cc2)c1=O , Alopecurus myosuroides (ALOMY), PRE Application ALOMY, percentage damage (five point scale) = 5 (5=80-100%)

Summary: Cn1nnnc1NC(=O)c1nn(C)c(=O)n(Cc2ccccc2Cl)c1=O , Alopecurus myosuroides (ALOMY), PRE Application ALOMY, percentage damage (five point scale) = 5 (5=80-100%)

----------
Tested on: Solanum nigrum (SOLNI)
Assay: Herbicidal glasshouse test, pre-emergence, SOLNI
Assay type: in vivo
Details: applied at 1000 g/h, evaluated after 13 days
Description: Seeds of a variety of test species are sown in standard soil in pots (Alopecurus myosuroides (ALOMY), Setaria faberi (SETFA), Echinochloa crus-galli (ECHCG), Solanum nigrum (SOLNI), Amaranthus retoflexus (AMARE), Ipomoea hederacea (IPOHE)). […] After 13 days for pre and post-emergence, the test is evaluated for the percentage damage caused to the plant. […]
OBSERVED PROPERTY: PRE Application SOLNI, percentage damage (five point scale)

Below, each entry is followed by its recorded PRE Application SOLNI, percentage damage (five point scale) result.
[
  {
    "TEST SMILES": "Cn1nnnc1NC(=O)c1nn(C)c(=O)n(Cc2ccc(C(F)(F)F)cc2)c1=O",
    "TEST RESULT": "3 (3=40-59%)"
  },
  {
    "TEST SMILES": "CC(C)c1ccc(-n2c(=O)c(C(=O)Nc3nnnn3C)nn(C)c2=O)cc1",
    "TEST RESULT": "5 (5=80-100%)"
  },
  {
    "TEST SMILES": "Cn1nnnc1NC(=O)c1nn(C)c(=O)n(-c2ccc(F)cc2)c1=O",
    "TEST RESULT": "5 (5=80-100%)"
  }
]

Kindly review the next molecule as well.
Form: molecule = CCCn1nnnc1NC(=O)c1cn(C)c(=O)n(-c2cccc(F)c2)c1=O ; PRE Application SOLNI, percentage damage (five point scale) = 5 (5=80-100%)

----------
test system: Setaria faberi (SETFA); experiment: Herbicidal glasshouse test, post-emergence, SETFA; type: in vivo; settings: applied at 1000 g/h, evaluated after 13 days
Each entry below carries its reported POST Application SETFA, percentage damage (five point scale).

Below, each entry is followed by its recorded POST Application SETFA, percentage damage (five point scale) result.
[
  {
    "TEST SMILES": "Cn1nnnc1NC(=O)c1nn(C)c(=O)n(Cc2ccccc2C#N)c1=O",
    "ASSAYED SYSTEM": "Setaria faberi (SETFA)",
    "TEST RESULT": "5 (5=80-100%)"
  },
  {
    "TEST SMILES": "Cn1nnnc1NC(=O)c1nn(C)c(=O)n(CC2CCOCC2)c1=O",
    "ASSAYED SYSTEM": "Setaria faberi (SETFA)",
    "TEST RESULT": "5 (5=80-100%)"
  },
  {
    "TEST SMILES": "Cn1nnnc1NC(=O)c1nn(C)c(=O)n(-c2ccccc2)c1=O",
    "ASSAYED SYSTEM": "Setaria faberi (SETFA)",
    "TEST RESULT": "5 (5=80-100%)"
  }
]

Summary: Cn1cnnc1NC(=O)c1nn(C)c(=O)n(-c2ccccc2)c1=O , Setaria faberi (SETFA), POST Application SETFA, percentage damage (five point scale) = 3 (3=40-59%)

Summary: CC(C)c1ccc(-n2c(=O)c(C(=O)Nc3nnnn3C)nn(C)c2=O)cc1 , Setaria faberi (SETFA), POST Application SETFA, percentage damage (five point scale) = 5 (5=80-100%)

Summary: Cn1nnnc1NC(=O)c1nn(C)c(=O)n(Cc2ccc(C(F)F)cc2)c1=O , Setaria faberi (SETFA), POST Application SETFA, percentage damage (five point scale) = 2 (2=20-39%)

----------
Each entry below carries its reported POST Application SETFA, percentage damage (five point scale).
test system: Setaria faberi (SETFA); test: Herbicidal glasshouse test, post-emergence, SETFA; assay type: in vivo; conditions: applied at 1000 g/h, evaluated after 13 days

[
  {
    "TEST SMILES": "Cc1cc(Cn2c(=O)c(C(=O)Nc3nnnn3C)nn(C)c2=O)ccc1F",
    "ASSAYED SYSTEM": "Setaria faberi (SETFA)",
    "TEST RESULT": "1 (1=0-19%)"
  }
]

Summary: Cn1nnnc1NC(=O)c1nn(C)c(=O)n(Cc2ccccc2Br)c1=O , Setaria faberi (SETFA), POST Application SETFA, percentage damage (five point scale) = 2 (2=20-39%)

Summary: COc1ccc([N+](=O)[O-])cc1Cn1c(=O)c(C(=O)Nc2nnnn2C)nn(C)c1=O , Setaria faberi (SETFA), POST Application SETFA, percentage damage (five point scale) = 4 (4=60-79%)

Summary: Cn1nnnc1NC(=O)c1nn(C)c(=O)n(-c2ccc(F)cc2Cl)c1=O , Setaria faberi (SETFA), POST Application SETFA, percentage damage (five point scale) = 5 (5=80-100%)

Data provenance: patent US20160009693A1
